src = patent US20220162331A1

CD73 endocytosis ratio %, 240 minutes: recorded values
Target: T1, human CD73 on Calu6 cells (human, UniProt P21589 27-549)
T1 sequence (looked up): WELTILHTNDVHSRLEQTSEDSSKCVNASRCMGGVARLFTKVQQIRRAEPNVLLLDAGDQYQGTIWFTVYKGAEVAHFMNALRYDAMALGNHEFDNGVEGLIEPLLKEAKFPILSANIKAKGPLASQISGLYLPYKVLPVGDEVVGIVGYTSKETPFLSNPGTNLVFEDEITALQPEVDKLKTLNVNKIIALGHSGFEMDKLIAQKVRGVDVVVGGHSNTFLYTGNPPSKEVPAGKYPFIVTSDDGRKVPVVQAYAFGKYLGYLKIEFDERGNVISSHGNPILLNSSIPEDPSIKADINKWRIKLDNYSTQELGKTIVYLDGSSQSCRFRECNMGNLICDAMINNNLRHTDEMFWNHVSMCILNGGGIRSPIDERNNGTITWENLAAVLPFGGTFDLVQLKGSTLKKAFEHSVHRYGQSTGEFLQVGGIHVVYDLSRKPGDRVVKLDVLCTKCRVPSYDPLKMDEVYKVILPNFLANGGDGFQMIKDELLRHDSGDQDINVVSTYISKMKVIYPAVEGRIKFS
Test: cell-based or functional assay
Please respond with the number in % and leave the unit unwritten.

CD73 antibody 7E10 (antibody, V domains shown, Mouse variable regions on human IgG heavy chain constant region and human kappa constant region (chimeric IgG); also called Clone 7E10) VH: QVQFQQSGAELVRPGASVKLSCKASGYIFSSYWIQWVKQRPGQGLEWIGAIYPGDGDTRYTQKFKDKATLTADKSSSTAYMQLSSLASEDSAVYYCAGFASWGQGTLVTVSA VL: DIQMTQSPSSLSASLGERVSLTCRASQDIGSSLNWLQQEPNGTIKRLIYATSSLDSGVPKRFSGSRSGSDYSLTISSLESEDFADYYCLQYASSPYTFGGGTKLEIK : 6.6

// query Report measured CD73 endocytosis ratio %, 240 minutes; entry is CD73 antibody 6G8 (chimeric) (antibody, V domains shown, Mouse variable regions on human IgG heavy chain constant region and human kappa constant region (chimeric IgG); also called Clone 6G8; 6G8 Chimera) VH: QVTLKESGPGILKPSQTLSLTCSFSGFSLNTSGMGVGWIRQPSGKGLEWLAHIWWDDDKYYNPSLKSQLTISKDTSRNQVFLRIASVDTADTATYYCARRERWAWFAYWGQGTLVTVSA VL: DIVMTQSQKFMSASVGDRVSVTCKASQNVFTNVAWYQQKPGQSPKVLIYSASYRYSGVPDRFTGSGSGTDFTLTINNVQSEDLAEYFCQQYNSYPTFGSGTKLEIK
// result 35.3

// query Report measured CD73 endocytosis ratio %, 240 minutes; entry is CD73 antibody 2D4 (antibody, V domains shown, also called Clone 2D4) VH: EVKLVESGGGLVQPGGSLKLSCATSGFTFSDYYMYWVRQTPEKRLEWVAYISNVGGSTYYPDTVKGRFTISRDNAKNTLYLQMSRLKSEDTAIYYCARGDGYYGYYFDVWGAGTTVTVSS VL: QIVLTQSPAIMSASPGEKVTMTCSASSSVSYMHWYQQKSGTSPKRWIYDTSKLASGVPARFSGSGSGTSYSLTISSMEAEDAATYYCQQWSSNPYTFGGGTKLEIK
// result 39.5
